# Type: physicochemical
# condition-details: pH 7.4
Starred links: 1 amine or outer side, 2 acyl side, 3 side chain; linkers in the order of their positions; H or OH if unused. Non-standard residues stand in square brackets, D forms with d. Residues, ends and D or L forms follow the SMILES beside them. *: point of attachment. DOTA = O=C(O)CN1CCN(CC(=O)O)CCN(CC(=O)*)CCN(CC(=O)O)CC1; d(γGlu) = O=C(O)[C@@H](CCC(=O)[*:2])N[*:1]; 1Nal = N[C@@H](Cc1cccc2ccccc12)C(=O)O; NMeNle = CCCC[C@H](NC)C(=O)O

molecule	logD
CCCC[C@@H](C(=O)N[C@@H](CC(=O)O)C(=O)N[C@@H](Cc1cccc2ccccc12)C(N)=O)N(C)C(=O)[C@H](Cc1c[nH]c2ccccc12)NC(=O)CNC(=O)CNC(=O)[C@H](C)NC(=O)CNC(=O)CN1CCN(CC(=O)O)CCN(CC(=O)O)CCN(CC(=O)O)CC1 [[^nat/177Lu]Lu-DOTA-CCK-57, metal not drawn] ({DOTA}-GAGGW[NMeNle]D[1Nal]-NH2)	-1.94
CCCC[C@@H](C(=O)N[C@@H](CC(=O)O)C(=O)N[C@@H](Cc1cccc2ccccc12)C(N)=O)N(C)C(=O)[C@H](Cc1c[nH]c2ccccc12)NC(=O)CNC(=O)[C@H](Cc1ccc(O)cc1)NC(=O)CNC(=O)CC[C@@H](NC(=O)CN1CCN(CC(=O)O)CCN(CC(=O)O)CCN(CC(=O)O)CC1)C(=O)O [[^nat/177Lu]Lu-DOTA-CCK-60, metal not drawn] ({DOTA-d(γGlu)}-GYGW[NMeNle]D[1Nal]-NH2)	-2.63
CCCC[C@@H](C(=O)N[C@@H](CC(=O)O)C(=O)N[C@@H](Cc1cccc2ccccc12)C(N)=O)N(C)C(=O)[C@H](Cc1c[nH]c2ccccc12)NC(=O)CNC(=O)[C@H](Cc1ccc(O)cc1)NC(=O)[C@H](C)NC(=O)CNC(=O)CN1CCN(CC(=O)O)CCN(CC(=O)O)CCN(CC(=O)O)CC1 [[^nat/177Lu]Lu-DOTA-CCK-59, metal not drawn] ({DOTA}-GAYGW[NMeNle]D[1Nal]-NH2)	-1.26

###

# Format: physicochemical
# condition-details: pH 7.4
# Protocol: Lipophilicity (depicted as n-octanol-phosphate-buffered saline solution (PBS, pH = 7.4) distribution coefficient, logD7.4) of ^177Lu-labeled minigastrin analogs was evaluated as previously published.
Starred links: 1 amine or outer side, 2 acyl side, 3 side chain; linkers in the order of their positions; H or OH if unused. Non-standard residues stand in square brackets, D forms with d. Residues, ends and D or L forms follow the SMILES beside them. *: point of attachment. DOTA = O=C(O)CN1CCN(CC(=O)O)CCN(CC(=O)*)CCN(CC(=O)O)CC1; d(γGlu) = O=C(O)[C@@H](CCC(=O)[*:2])N[*:1]; 1Nal = N[C@@H](Cc1cccc2ccccc12)C(=O)O; NMeNle = CCCC[C@H](NC)C(=O)O
experimental-endpoint: logD7.4

compound	result
CCCC[C@@H](C(=O)N[C@@H](CC(=O)O)C(=O)N[C@@H](Cc1cccc2ccccc12)C(N)=O)N(C)C(=O)[C@H](Cc1c[nH]c2ccccc12)NC(=O)CNC(=O)CN1CCN(CC(=O)O)CCN(CC(=O)O)CCN(CC(=O)O)CC1 [[^nat/177Lu]Lu-DOTA-CCK-62, DOTA-Gly-Trp-(N-Me)Nle-Asp-1-Nal-NH2, metal not drawn] ({DOTA}-GW[NMeNle]D[1Nal]-NH2)	− 1.9 to − 1.2
CCCC[C@@H](C(=O)N[C@@H](CC(=O)O)C(=O)N[C@@H](Cc1cccc2ccccc12)C(N)=O)N(C)C(=O)[C@H](Cc1c[nH]c2ccccc12)NC(=O)CNC(=O)CNC(=O)CNC(=O)CC[C@@H](NC(=O)CN1CCN(CC(=O)O)CCN(CC(=O)O)CCN(CC(=O)O)CC1)C(=O)O [[^nat/177Lu]Lu-DOTA-CCK-58, metal not drawn] ({DOTA-d(γGlu)}-GGGW[NMeNle]D[1Nal]-NH2)	‒2.7 to ‒2.1
CCCC[C@@H](C(=O)N[C@@H](CC(=O)O)C(=O)N[C@@H](Cc1cccc2ccccc12)C(N)=O)N(C)C(=O)[C@H](Cc1c[nH]c2ccccc12)NC(=O)CNC(=O)[C@H](Cc1ccc(O)cc1)NC(=O)CNC(=O)CNC(=O)CN1CCN(CC(=O)O)CCN(CC(=O)O)CCN(CC(=O)O)CC1 [[^nat/177Lu]Lu-DOTA-CCK-56, metal not drawn] ({DOTA}-GGYGW[NMeNle]D[1Nal]-NH2)	− 1.9 to − 1.2
CCCC[C@@H](C(=O)N[C@@H](CC(=O)O)C(=O)N[C@@H](Cc1cccc2ccccc12)C(N)=O)N(C)C(=O)[C@H](Cc1c[nH]c2ccccc12)NC(=O)CNC(=O)[C@H](Cc1ccc(O)cc1)NC(=O)[C@H](C)NC(=O)CNC(=O)CN1CCN(CC(=O)O)CCN(CC(=O)O)CCN(CC(=O)O)CC1 [[^nat/177Lu]Lu-DOTA-CCK-59, metal not drawn] ({DOTA}-GAYGW[NMeNle]D[1Nal]-NH2)	− 1.9 to − 1.2
CCCC[C@@H](C(=O)N[C@@H](CC(=O)O)C(=O)N[C@@H](Cc1cccc2ccccc12)C(N)=O)N(C)C(=O)[C@H](Cc1c[nH]c2ccccc12)NC(=O)CNC(=O)CNC(=O)[C@H](C)NC(=O)CNC(=O)CN1CCN(CC(=O)O)CCN(CC(=O)O)CCN(CC(=O)O)CC1 [[^nat/177Lu]Lu-DOTA-CCK-57, metal not drawn] ({DOTA}-GAGGW[NMeNle]D[1Nal]-NH2)	− 1.9 to − 1.2
CCCC[C@@H](C(=O)N[C@@H](CC(=O)O)C(=O)N[C@@H](Cc1cccc2ccccc12)C(N)=O)N(C)C(=O)[C@H](Cc1c[nH]c2ccccc12)NC(=O)CNC(=O)[C@H](Cc1ccc(O)cc1)NC(=O)CNC(=O)CC[C@@H](NC(=O)CN1CCN(CC(=O)O)CCN(CC(=O)O)CCN(CC(=O)O)CC1)C(=O)O [[^nat/177Lu]Lu-DOTA-CCK-60, metal not drawn] ({DOTA-d(γGlu)}-GYGW[NMeNle]D[1Nal]-NH2)	‒2.7 to ‒2.1
CCCC[C@@H](C(=O)N[C@@H](CC(=O)O)C(=O)N[C@@H](Cc1cccc2ccccc12)C(N)=O)N(C)C(=O)[C@H](Cc1c[nH]c2ccccc12)NC(=O)CNC(=O)CNC(=O)[C@H](C)NC(=O)CC[C@@H](NC(=O)CN1CCN(CC(=O)O)CCN(CC(=O)O)CCN(CC(=O)O)CC1)C(=O)O [[^nat/177Lu]Lu-DOTA-CCK-61, metal not drawn] ({DOTA-d(γGlu)}-AGGW[NMeNle]D[1Nal]-NH2)	‒2.7 to ‒2.1
CCCC[C@@H](C(=O)N[C@@H](CC(=O)O)C(=O)N[C@@H](Cc1cccc2ccccc12)C(N)=O)N(C)C(=O)[C@H](Cc1c[nH]c2ccccc12)NC(=O)CNC(=O)CNC(=O)CNC(=O)CNC(=O)CN1CCN(CC(=O)O)CCN(CC(=O)O)CCN(CC(=O)O)CC1 [[^nat/177Lu]Lu-DOTA-CCK-55, metal not drawn] ({DOTA}-GGGGW[NMeNle]D[1Nal]-NH2)	‒2.7 to ‒2.1
